target: JAK2V617F (Homo sapiens, UniProt O60674, V617F); construct: purchased Carna Biosciences; assay: JAK2V617F microfluidic kinase assay (Caliper EZ Reader II, FAM labeled peptide substrate); format: biochemical; details: (2.5 nM), 1 mM ATP; Table 3B, literature compounds; read-out: J2V617F (2.5 nM) (1 mM ATP)
Sequence (O60674 whole entry V617F): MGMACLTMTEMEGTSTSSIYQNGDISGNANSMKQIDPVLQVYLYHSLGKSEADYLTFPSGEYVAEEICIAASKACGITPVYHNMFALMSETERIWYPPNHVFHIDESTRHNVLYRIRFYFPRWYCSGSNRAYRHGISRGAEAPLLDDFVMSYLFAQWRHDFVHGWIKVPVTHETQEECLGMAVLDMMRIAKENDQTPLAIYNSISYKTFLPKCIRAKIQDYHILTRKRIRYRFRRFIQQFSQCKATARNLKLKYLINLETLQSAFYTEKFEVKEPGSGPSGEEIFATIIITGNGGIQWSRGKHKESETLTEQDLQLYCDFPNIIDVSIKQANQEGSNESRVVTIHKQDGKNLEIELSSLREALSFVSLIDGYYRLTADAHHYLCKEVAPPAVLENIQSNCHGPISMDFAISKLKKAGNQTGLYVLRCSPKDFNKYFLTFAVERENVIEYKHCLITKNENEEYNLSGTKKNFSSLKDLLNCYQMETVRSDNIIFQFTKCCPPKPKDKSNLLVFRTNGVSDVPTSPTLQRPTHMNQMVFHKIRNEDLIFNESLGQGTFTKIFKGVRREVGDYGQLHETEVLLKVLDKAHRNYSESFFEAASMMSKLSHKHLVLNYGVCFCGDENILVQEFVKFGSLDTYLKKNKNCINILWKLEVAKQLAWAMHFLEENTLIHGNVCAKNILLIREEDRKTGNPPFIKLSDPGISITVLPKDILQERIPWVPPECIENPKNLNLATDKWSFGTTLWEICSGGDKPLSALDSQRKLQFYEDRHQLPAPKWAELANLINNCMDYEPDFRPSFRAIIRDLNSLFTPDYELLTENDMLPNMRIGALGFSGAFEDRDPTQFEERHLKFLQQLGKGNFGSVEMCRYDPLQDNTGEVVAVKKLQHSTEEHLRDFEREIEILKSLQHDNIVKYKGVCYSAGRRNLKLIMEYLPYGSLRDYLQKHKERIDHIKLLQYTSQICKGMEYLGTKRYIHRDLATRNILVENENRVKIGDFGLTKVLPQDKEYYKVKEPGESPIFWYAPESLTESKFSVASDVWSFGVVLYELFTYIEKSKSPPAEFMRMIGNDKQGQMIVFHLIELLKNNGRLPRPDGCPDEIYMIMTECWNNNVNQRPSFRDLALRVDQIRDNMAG
result_type: pIC50
The meaning of pIC50 here: minus log10 of the concentration in molar units.

Some compounds with known pIC50 results, for comparison:
compound | experimental_target | pIC50
Cc1cnc(Nc2cnn(C)c2)nc1-c1ccc(OC(C)C)c(F)c1 [Example 47, reference compound] | JAK2V617F (Homo sapiens, UniProt O60674, V617F) | 7.07
CCOc1ccc(-c2nc(Nc3cnn(C)c3)ncc2C)cc1 [Example 50, reference compound] | JAK2V617F (Homo sapiens, UniProt O60674, V617F) | 6.47
COc1ccc(-c2nc(Nc3cnn(C)c3)ncc2C)cc1F [Example 45, reference compound] | JAK2V617F (Homo sapiens, UniProt O60674, V617F) | 6.69
CCOc1ccc(-c2nc(Nc3cnn(C)c3)ncc2C)cc1F [Example 46, reference compound] | JAK2V617F (Homo sapiens, UniProt O60674, V617F) | 7.06
CCCOc1ccc(-c2nc(Nc3cnn(C)c3)ncc2C)cc1F [Example 48, reference compound] | JAK2V617F (Homo sapiens, UniProt O60674, V617F) | 7.22

Next up:
Query block: What reported pIC50 corresponds to CCOc1ccc(-c2nc(Nc3cnn(C(C)C)c3)ncc2C)cc1F [Example 49, reference compound] on JAK2V617F (Homo sapiens, UniProt O60674, V617F)?
Result block: 6.99
